Assay: qHTS RealTime-Glo MT Cell Viability Assay in HEK293 cells - 16 hour (AID 1224872); also: nearly all actives have a fitted effect of over 50% in size
Conditions: RealTime-Glo luminescence; series mostly up to 76.8 µM
Results filed as inconclusive are left out. Activity calls are given as the source filed them. Calls follow the shape of the dose curve; as a rule, active = well fitted cell-killing curve with a large enough effect in the repeat runs; inconclusive = weak or mixed curves, or effect the other way; inactive = flat fitted curve, though single readings scatter.
Log the outcome using a class from 1.0 (active), 0.0 (inactive)

COMPOUND	CLASS_LABEL
CC[C@H]1OC(=O)[C@H](C)[C@@H](O[C@H]2C[C@@](C)(OC)[C@@H](O)[C@H](C)O2)[C@H](C)[C@@H](O[C@@H]2O[C@H](C)C[C@H](N(C)C)[C@H]2O)[C@](C)(O)C[C@@H](C)C(=O)[C@H](C)[C@@H](O)[C@]1(C)O	0.0
SCCc1cnccn1	0.0
CC[C@H]1OC(=O)[C@H](C)[C@@H](O[C@H]2C[C@@](C)(OC)[C@@H](O)[C@H](C)O2)[C@H](C)[C@@H](O[C@@H]2O[C@H](C)C[C@H](N(C)C)[C@H]2O)[C@](C)(O)C[C@@H](C)/C(=N\OCOCCOC)[C@H](C)[C@@H](O)[C@]1(C)O	0.0
CS(=O)(=O)c1ccc([C@@H](C[C@H]2CCC(=O)C2)C(=O)Nc2cnccn2)cc1Cl	0.0
CC(C)C(O)C(C)(C)CO (stereo unspecified)	1.0

Then this compound:
Query string: Returns: the outcome recorded for `CCNc1nc(N)nc(Cl)n1` in this assay.
Result string: 0.0

---

Biological target: Aryl hydrocarbon receptor (Homo sapiens)
Experiment: qHTS assay to identify small molecule that activate the aryl hydrocarbon receptor (AhR) signaling pathway (AID 743085);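 also: HG2L7.5c1 human HepG2 liver cells with stably integrated DRE-driven firefly reporter; nearly all actives have a fitted effect of over 15% in size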
Details: HepG2 AhR-luc (HG2L7.5c1), luciferase, 24 h; series mostly up to 70.3 µM
Inconclusive results are not listed. The source made the active and inactive calls. Calls follow the shape of the dose curve; as a rule, active = well fitted activation curve with a large enough effect in the repeat runs; inconclusive = weak or mixed curves; inactive = no such curve, though single readings can be large or run the other way.
Log the outcome using a class from active, inactive

COMPOUND	CLASS_LABEL
COC(OC)OC	inactive
Nc1ccc(NC(=O)c2ccc(N)cc2)cc1	inactive

Query string: Returns: the outcome recorded for `CSSc1ccoc1C` in this assay.
Result string: inactive

Query string: Returns: the outcome recorded for `COc1cc(S(=O)(=O)Nc2ccccc2)c(OC)cc1N` in this assay.
Result string: inactive

---

Assay: qHTS assay to identify small molecule antagonists of the vitamin D receptor (VDR) signaling pathway - cell viability counter screen (AID 743225); also: nearly all actives have a fitted effect of over 50% in size
Details: VDR-bla HEK293T viability, CellTiter-Glo luminescence, 16 h; series mostly up to 61 µM
Results filed as inconclusive are left out. Activity calls are given as the source filed them. Calls come from the whole dose curve; as a rule, active = well fitted cell-killing curve with a large enough effect in the repeat runs; inconclusive = weak or mixed curves, or effect the other way; inactive = no such curve, though single readings can be large or run the other way.
MEASURED_QUANTITY: outcome

MOLECULE	MEASURED_QUANTITY	VALUE_OBSERVED
CCCCCCCCCCCCCCCC(=O)OCC	outcome	inactive
CC(=O)OCC(C)C	outcome	inactive
CC(O)Cn1cnc2c1c(=O)n(C)c(=O)n2C (centres undefined)	outcome	inactive
c1ccc(CNc2ncnc3c2ncn3C2CCCCO2)cc1 (centres undefined)	outcome	inactive

---

Assay: qHTS assay to identify small molecule antagonists of the retinoid acid receptor (RAR) signaling pathway - cell viability counter screen (AID 1159551); also: nearly all actives have a fitted effect of over 35% in size
Settings: C3RL4 cells viability, ATP luminescence (CellTiter-Glo), 6 h; series mostly up to 92.4 µM
Results filed as inconclusive are left out. The source made the active and inactive calls. The call rests on the fitted dose curve; in most records, active means well fitted cell-killing curve with a large enough effect in the repeat runs; inconclusive means weak or mixed curves, or effect the other way; inactive means flat fitted curve, though single readings scatter.
MEASURED_QUANTITY: activity change, negative = cytotoxicity

Worked set:
MOLECULE	VALUE_OBSERVED
CCO[Si](C)(CCCOCC1CO1)OCC (stereo unspecified)	inactive
CCCCCC	inactive
Cc1ccc2nc(N)[nH]c(=O)c2c1Sc1ccncc1	inactive
FC(F)(F)C(F)(F)C(F)(F)C(F)(F)CCI	inactive
O=c1[nH][nH]c(=O)c2cc([N+](=O)[O-])ccc12	inactive

Query string: // returns reported activity change, negative = cytotoxicity for input CC(CCc1ccc(O)cc1)NCCc1ccc(O)c(O)c1 (stereo unspecified)
Result string: inactive

Query string: // returns reported activity change, negative = cytotoxicity for input `O=C(O)c1cccc(C[C@@H]2COc3ccc(OCc4nc5cc(F)ccc5s4)cc3[C@@H]2O)c1`
Result string: inactive

Query string: // returns reported activity change, negative = cytotoxicity for input CC(O)Cn1cnc2c1c(=O)n(C)c(=O)n2C (stereo unspecified)
Result string: inactive

Query string: // returns reported activity change, negative = cytotoxicity for input `O=C(O)CO`
Result string: inactive

Query string: // returns reported activity change, negative = cytotoxicity for input `C[C@@H]1C[C@H]2[C@@H]3CCC4=CC(=O)C=C[C@]4(C)[C@@]3(F)[C@@H](O)C[C@]2(C)[C@@]1(O)C(=O)COP(=O)(O)O`
Result string: inactive

Query string: // returns reported activity change, negative = cytotoxicity for input `CCOC(=O)Oc1ccc(CCNC(=O)[C@H](CCSC)NC(C)=O)cc1OC(=O)OCC`
Result string: inactive

Query string: // returns reported activity change, negative = cytotoxicity for input `CCC(CO)(CO)CO`
Result string: inactive

Query string: // returns reported activity change, negative = cytotoxicity for input `Cc1ccc(Nc2c(F)cccc2Cl)c(CC(=O)O)c1`
Result string: inactive

---

Experiment: qHTS assay to identify small molecule antagonists of the constitutive androstane receptor (CAR) signaling pathway - cell viability counter screen (AID 1224837); also: nearly all actives have a fitted effect of over 45% in size
Conditions: HepG2-CYP2B6-hCAR viability, CellTiter-Fluor, 23 h, co-treated with 50 nM CITCO; series mostly up to 92.4 µM
Records with an inconclusive call do not appear. Calls of active or inactive are those of the source. Calls follow the shape of the dose curve; as a rule, active = well fitted cell-killing curve with a large enough effect in the repeat runs; inconclusive = weak or mixed curves, or effect the other way; inactive = flat fitted curve, though single readings scatter.
Log the outcome using a class from T = active, F = inactive

COMPOUND	CLASS_LABEL
COc1ccc(-n2nc(C(F)F)cc2-c2ccc(S(C)=O)cc2)cc1 (stereo not drawn)	F

Query string: Returns: the outcome recorded for `CCC(CO)(CO)[N+](=O)[O-]` in this assay.
Result string: F

Query string: Returns: the outcome recorded for `CCN(Cc1cccc(S(=O)(=O)O)c1)c1ccc(C(=C2C=CC(=[N+](CC)Cc3cccc(S(=O)(=O)O)c3)C=C2)c2ccc(O)cc2S(=O)(=O)[O-])cc1` in this assay.
Result string: T

Query string: Returns: the outcome recorded for `COC(C)(C)OC` in this assay.
Result string: F

Query string: Returns: the outcome recorded for `CCCC(=O)OC(=O)CCC` in this assay.
Result string: F

Query string: Returns: the outcome recorded for `CC(=O)C(C)=O` in this assay.
Result string: F

Query string: Returns: the outcome recorded for `CCCc1nc2c(C)cc(-c3nc4ccccc4n3C)cc2n1Cc1ccc(-c2ccccc2C(=O)O)cc1` in this assay.
Result string: F

Query string: Returns: the outcome recorded for CC(C)(C)C(O)/C=C/c1ccc2c(c1)OCO2 (stereo not drawn) in this assay.
Result string: F

Query string: Returns: the outcome recorded for `CC(=O)OCC(C)C` in this assay.
Result string: F

Query string: Returns: the outcome recorded for `CC(=O)N[C@@H](Cc1ccc(O)cc1)C(=O)O` in this assay.
Result string: F

Query string: Returns: the outcome recorded for `Cc1ccc(S(=O)(=O)NC(=O)NC2CCCCC2)cc1` in this assay.
Result string: F

Query string: Returns: the outcome recorded for `COc1ccc(CCN(C)CCCN2CCc3cc(OC)c(OC)cc3CC2=O)cc1OC` in this assay.
Result string: F

Query string: Returns: the outcome recorded for CCCCCCC(O)CCOC(C)=O (stereo not drawn) in this assay.
Result string: F

Query string: Returns: the outcome recorded for `CC(CO)(CO)C(=O)O` in this assay.
Result string: F

---

Test: qHTS assay to identify small molecule antagonists of the estrogen related receptor signaling pathway with the pleiotropic PPARgamma coactivator (PGC) from Tox21 10K library - cell viability counter screen (AID 1224840); also: nearly all actives have a fitted effect of over 40% in size
Conditions: PGC/ERR reporter cells viability, CellTiter-Fluor, 17.5 h; series mostly up to 92.4 µM
Results filed as inconclusive are left out. Active and inactive are the calls of the source. The call rests on the fitted dose curve; in most records, active means well fitted cell-killing curve with a large enough effect in the repeat runs (not every such curve was filed as active); inconclusive means weak or mixed curves, or effect the other way; inactive means no such curve, though single readings can be large or run the other way.
Log the outcome using a class from TRUE (active), FALSE (inactive)

Worked cases, answers included:
COMPOUND	CLASS_LABEL
CC[C@H]1OC(=O)[C@H](C)[C@@H](O[C@H]2C[C@@](C)(OC)[C@@H](O)[C@H](C)O2)[C@H](C)[C@@H](O[C@@H]2O[C@H](C)C[C@H](N(C)C)[C@H]2O)[C@](C)(O)C[C@@H](C)/C(=N\OCOCCOC)[C@H](C)[C@@H](O)[C@]1(C)O	FALSE
CCN(CC)CCNC(=O)c1cc(Cl)c(N)cc1OC	FALSE
O=C1c2ccccc2C(=O)c2c(O)ccc(O)c21	FALSE
O=CNNC=O	FALSE
CCOC(=O)c1ccc(NC(=O)CN2CCCCC2)cc1	FALSE

Query string: Returns: the outcome recorded for `CSSc1ccoc1C` in this assay.
Result string: FALSE

Query string: Returns: the outcome recorded for CC(C)(C)C(O)/C=C/c1ccc2c(c1)OCO2 (stereo unspecified) in this assay.
Result string: FALSE

Query string: Returns: the outcome recorded for `CCCCCCOC(=O)CCCCC` in this assay.
Result string: FALSE

Query string: Returns: the outcome recorded for `CCN(CC)c1ccc(C(=C2C=CC(=[N+](CC)CC)C=C2)c2ccc(S(=O)(=O)O)cc2S(=O)(=O)[O-])cc1` in this assay.
Result string: TRUE

Query string: Returns: the outcome recorded for `CS(=O)(=O)c1ccc([C@@H](C[C@H]2CCC(=O)C2)C(=O)Nc2cnccn2)cc1Cl` in this assay.
Result string: FALSE
